From: patent US6589970B2

target: recombinant human plasminogen activator inhibitor-1 (PAI-1) (Homo sapiens, UniProt P05121)
Construct: purchased Molecular Innovations, Royal Oak, Mich
testProtocol: Modification of the Primary Screen for the PAI-1 Inhibition (IC50)
Type: biochemical
Where a name gives a salt, the structure may show the parent alone.
measuredProperty: IC50 (µM)

CCCCc1oc2ccccc2c1C(=O)NCc1ccc2cc(OCc3nnn[nH]3)ccc2c1 [Example 8, sodium salt] = 22.9
O=C(NCc1ccc2c(Br)c(OC(Cc3ccccc3)C(=O)O)ccc2c1)c1cccc(Oc2ccccc2)c1 (stereo not shown) [Example 57] = 5.5
Cc1oc(-c2ccc(Cl)cc2)cc1C(=O)NCc1ccc2cc(OCC(=O)O)ccc2c1 [Example 10] = 25.2

A. CCCCc1oc2ccccc2c1C(=O)NCc1ccc2c(Br)c(OCc3nnn[nH]3)ccc2c1.[Na] [Example 17, sodium salt]
B. CCCCc1oc2ccccc2c1C(=O)N(C)Cc1ccc2c(Br)c(OCc3nnn[nH]3)ccc2c1 [Example 31]
C. CCCCc1oc2ccccc2c1C(=O)Nc1ccc2c(Br)c(OC(Cc3ccccc3)C(=O)O)ccc2c1 (stereo not shown) [Example 7]
Ask: Reorder the items by IC50, least to greatest. Answer format: the labels, ordered as requested.
Result: A, C, B
(A: 1.4 µM, C: 7.8 µM, B: 15.6 µM)

====

target: human PAI-1 (Homo sapiens, UniProt P05121)
Sequence (P05121 24-402): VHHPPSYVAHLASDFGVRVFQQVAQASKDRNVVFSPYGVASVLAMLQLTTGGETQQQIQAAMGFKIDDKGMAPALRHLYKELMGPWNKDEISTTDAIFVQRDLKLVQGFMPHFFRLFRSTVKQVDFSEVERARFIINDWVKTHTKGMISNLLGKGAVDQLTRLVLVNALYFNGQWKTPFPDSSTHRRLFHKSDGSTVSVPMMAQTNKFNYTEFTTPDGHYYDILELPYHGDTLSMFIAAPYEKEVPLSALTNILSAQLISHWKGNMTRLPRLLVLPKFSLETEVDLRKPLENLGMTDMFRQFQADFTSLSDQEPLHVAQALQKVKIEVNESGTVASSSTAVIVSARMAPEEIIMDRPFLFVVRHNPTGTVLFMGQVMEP
testProtocol: Assay for Determining IC50 of Inhibition of PAI-1 (Antibody Assay)
Type: biochemical
experimentalSetup: active PAI-1 bound to tPA-coated plate
measuredProperty: IC50 (µM)

a. Cc1oc2ccccc2c1C(=O)NCc1ccc2c(Br)c(OCc3nnn[nH]3)ccc2c1
b. CCc1oc2ccccc2c1C(=O)N(Cc1ccccc1)Cc1ccc2c(Br)c(OCc3nnn[nH]3)ccc2c1
Ask: Dear colleague, could you let me know whether a or b has the lower recorded IC50? Thanks. Write down the label of the entry you select.
Result: a

P. CN(Cc1ccc2c(Br)c(OC(Cc3ccccc3)C(=O)O)ccc2c1)C(=O)c1cc(C(C)(C)C)cc(C(C)(C)C)c1 (stereo not shown)
Q. O=C(NCc1ccc2c(Br)c(OC(Cc3ccccc3)C(=O)O)ccc2c1)c1ccc(Oc2cc(Cl)cc(Cl)c2)o1 (stereo not shown)
R. CCc1oc2ccccc2c1C(=O)NCc1ccc2c(Br)c(OCc3nnn[nH]3)ccc2c1
S. CCCc1c(C(=O)N(C)Cc2ccc3c(Br)c(OCc4nnn[nH]4)ccc3c2)cnn1-c1ccccc1
Ask: Put the items in sequence by IC50, from largest down. Please reply with the labels ordered as requested. Many thanks.
Result: S, P, Q, R

P. O=C(NCc1ccc2c(Br)c(OC(Cc3ccccc3)C(=O)O)ccc2c1)c1ccc(C2CCCCC2)cc1 (stereo not shown)
Q. Cc1oc2ccccc2c1C(=O)N(Cc1ccccc1)Cc1ccc2c(Br)c(OCc3nnn[nH]3)ccc2c1
Ask: Out of P and Q , name the one with the higher IC50. Give the label under which the chosen entry appears.
Result: P
(P: 16.8 µM, Q: 6.92 µM)

P. O=C(O)C(Cc1ccccc1)Oc1ccc2cc(CN(Cc3ccccc3)C(=O)c3ccc(Oc4cc(Cl)cc(Cl)c4)o3)ccc2c1Br (stereo not shown)
Q. CCCCc1oc2ccccc2c1C(=O)N(C)Cc1ccc2c(Br)c(OCc3nnn[nH]3)ccc2c1
R. CN(Cc1ccc2c(Br)c(OCc3nnn[nH]3)ccc2c1)C(=O)c1cn(Cc2ccccc2)c2ccccc12
S. CCCCc1oc2ccccc2c1C(=O)NCc1ccc2c(-c3ccc(OC)cc3)c(OC(Cc3ccccc3)C(=O)[O-])ccc2c1.[Na+] (stereo not shown)
Ask: Ascending sort, IC50. Sort and list the labels as requested.
Result: Q, P, R, S

P. CCCCc1oc2ccccc2c1C(=O)NCc1ccc2c(Br)c(OCc3nnn[nH]3)ccc2c1.[Na] [Example 17, sodium salt]
Q. CCc1oc2ccccc2c1C(=O)N(C)Cc1ccc2c(Br)c(OCc3nnn[nH]3)ccc2c1
Ask: Hi there, can you help? I need to know whether P or Q has lower measured IC50. To answer, give the label that identifies your chosen option.
Result: P

I. CCCCc1oc2ccccc2c1C(=O)N(Cc1ccccc1)Cc1ccc2c(Br)c(OCc3nnn[nH]3)ccc2c1
II. O=C(O)COc1ccc2cc(CNC(=O)c3cnn(-c4ccc(Cl)cc4)c3C(F)(F)F)ccc2c1
Ask: For the two items I and II , which reports the higher IC50 value? // respond with label for picked entry
Result: II

====

target: recombinant human plasminogen activator inhibitor-1 (PAI-1) (Homo sapiens)
Construct: purchased Molecular Innovations, Royal Oak, Mich
testProtocol: Primary Screen for the PAI-1 Inhibition
Assay type: biochemical
experimentalSetup: 25 μM test compound; read-out: % Inhib. 25 μM
Structures can show the parent of a compound that is named as a salt.
measuredProperty: inhibition at 25 µM (%)

Cc1oc2ccccc2c1C(=O)NCc1ccc2c(Br)c(OCc3nnn[nH]3)ccc2c1 = 26
CN(Cc1ccc2c(Br)c(OC(Cc3ccccc3)C(=O)O)ccc2c1)C(=O)c1oc2ccccc2c1CCc1ccccc1 (stereo not shown) = 58
CCCc1c(C(=O)NCc2ccc3cc(OCC(=O)O)ccc3c2)cnn1-c1ccccc1 = 5
CCCCN(Cc1ccc2c(Br)c(OCc3nnn[nH]3)ccc2c1)C(=O)c1c(C)oc2ccccc12 = 44
CCCCc1c(C(=O)N(C)Cc2ccc3c(Br)c(OCc4nnn[nH]4)ccc3c2)c2ccccc2n1C = 4

I. CCCCc1oc2ccccc2c1C(=O)NCc1ccc2c(-c3ccc(OC)cc3)c(OCc3nnn[nH]3)ccc2c1 [Example 25, sodium salt]
II. O=C(NCc1ccc2c(Br)c(OC(Cc3ccccc3)C(=O)O)ccc2c1)c1ccc(C2CCCCC2)cc1 (stereo not shown)
III. CCCc1c(C(=O)NCc2ccc3c(Br)c(OCC(=O)O)ccc3c2)cnn1-c1ccccc1
IV. CCc1oc2ccccc2c1C(=O)N(C)Cc1ccc2c(Br)c(OCc3nnn[nH]3)ccc2c1
Ask: Given 4 compounds, produce a descending ranking by inhibition at 25 µM. Output spec: a listing of the labels in the requested order.
Result: II, III, I, IV
(II: 35%, III: 5%, I: 3%, IV: 1%)

1. CCCCc1oc2ccccc2c1C(=O)N(CC)Cc1ccc2cc(OCc3nnn[nH]3)ccc2c1
2. CCc1oc2ccccc2c1C(=O)N(Cc1ccccc1)Cc1ccc2c(Br)c(OCc3nnn[nH]3)ccc2c1
3. CCCCc1oc2ccccc2c1C(=O)N(C)Cc1ccc2c(Br)c(OC(Cc3ccccc3)C(=O)O)ccc2c1 (stereo not shown)
4. O=C(O)COc1ccc2cc(CNC(=O)c3cc(-c4ccc(C(F)(F)F)cc4)oc3C(F)(F)F)ccc2c1
5. CCCc1ccc(-c2ccc(C(=O)N(Cc3ccccc3)Cc3ccc4c(Br)c(OC(Cc5ccccc5)C(=O)O)ccc4c3)cc2)cc1 (stereo not shown)
Ask: Descending sort on inhibition at 25 µM required. In your reply, arrange the labels in the requested order.
Result: 2, 1, 5, 4, 3
(2: 56%, 1: 26%, 5: 17%, 4: 9%, 3: 1%)

I. CCCCc1oc2ccccc2c1C(=O)NCc1ccc2c(-c3ccccc3)c(OCc3nnn[nH]3)ccc2c1
II. CCCCc1oc2ccccc2c1C(=O)N(CCCC)Cc1ccc2c(Br)c(OCc3nnn[nH]3)ccc2c1
III. CCCCc1oc2ccccc2c1C(=O)N(Cc1ccccc1)Cc1ccc2c(Br)c(OCc3nnn[nH]3)ccc2c1
Ask: Provide the items ranked by increasing inhibition at 25 µM. To answer, write out the labels according to the requested order.
Result: I, III, II
(I: 25%, III: 48%, II: 69%)

====

target: recombinant human plasminogen activator inhibitor-1 (PAI-1) (Homo sapiens, UniProt P05121)
Construct: purchased Molecular Innovations, Royal Oak, Mich
testProtocol: Primary Screen for the PAI-1 Inhibition
Format: biochemical
experimentalSetup: 100 μM test compound
Experimental: Test compounds are dissolved in DMSO at a final concentration of 10 mM, then diluted 100× in physiologic buffer. […] Following the second incubation, Spectrozyme-tPA (American Diagnostica, Greenwich, Conn.), a chromogenic substrate for tPA, is added and absorbance read at 405 nm at 0 and 60 minutes. […]
measuredProperty: % Inhib. 100 μM (%)

Some entries whose results are on file:
O=C(O)COc1ccc2cc(NC(=O)c3ccccc3OCc3ccccc3)ccc2c1 = 54
O=C(O)COc1ccc2cc(NC(=O)C3(c4ccc(Cl)cc4)CCCCC3)ccc2c1 = 50
CCCc1c(C(=O)N(Cc2ccccc2)Cc2ccc3c(Br)c(OC(Cc4ccccc4)C(=O)O)ccc3c2)cnn1-c1ccccc1 (centres unmarked) = 68
O=C(NCc1ccc2cc(OCc3nn[nH]n3)ccc2c1)c1cc2ccccc2o1 = 52
O=C(O)COc1ccc2cc(CNC(=O)c3cc4ccccc4o3)ccc2c1 = 23
O=C(O)C(Cc1ccccc1)Oc1ccc2cc(CNC(=O)C3(c4ccc(Cl)cc4)CCCC3)ccc2c1Br (centres unmarked) = 44

P. O=C(O)C(Cc1ccccc1)Oc1ccc2cc(CN(Cc3ccccc3)C(=O)c3ccc(C4CCCCC4)cc3)ccc2c1Br (centres unmarked)
Q. O=C(NCc1ccc2c(Br)c(OC(Cc3ccccc3)C(=O)O)ccc2c1)c1ccc(-c2cccc(C(F)(F)F)c2)o1 (centres unmarked)
Ask: Between P and Q , which one shows the larger % Inhib. 100 μM value? Please identify the chosen entry by its label.
Result: P
